// data source = paper PMC7399337

MIC data for S. aureus MRSA 97-7 follow.

Check out these entries, answers already filled in.
# Compound, MIC
measured = [
    ("O=C1CC(c2ccc(O)c(O)c2)Oc2cc(O)cc(O)c21 (stereo not shown) [Compound 3, 5,7,3’,4’-Tetrahydroxyflavanone]", "> 100 µg/mL"),
    ("COc1cc(O)c2c(c1)O[C@H](c1ccc(O)c(O)c1)CC2=O", "50 µg/mL"),
    ("COc1cc(C2CC(=O)c3c(O)cc(O)cc3O2)ccc1O (stereo not shown) [Compound 4, 3’-methoxy-4’,5,7-trihydroxyflavanone]", "> 100 µg/mL"),
]

Field: next compound
*Q* Hi! What's the reported MIC for COc1cc(O)c2c(c1)O[C@H](c1ccc(O)cc1)CC2=O on S. aureus MRSA 97-7?
*A* > 100 µg/mL

----------
Target: 5-hLOX (Homo sapiens, UniProt P09917)
Construct: purchased Cayman Chemicals Inc. (Ann Arbor, MI, USA)
Sequence (P09917 1-674): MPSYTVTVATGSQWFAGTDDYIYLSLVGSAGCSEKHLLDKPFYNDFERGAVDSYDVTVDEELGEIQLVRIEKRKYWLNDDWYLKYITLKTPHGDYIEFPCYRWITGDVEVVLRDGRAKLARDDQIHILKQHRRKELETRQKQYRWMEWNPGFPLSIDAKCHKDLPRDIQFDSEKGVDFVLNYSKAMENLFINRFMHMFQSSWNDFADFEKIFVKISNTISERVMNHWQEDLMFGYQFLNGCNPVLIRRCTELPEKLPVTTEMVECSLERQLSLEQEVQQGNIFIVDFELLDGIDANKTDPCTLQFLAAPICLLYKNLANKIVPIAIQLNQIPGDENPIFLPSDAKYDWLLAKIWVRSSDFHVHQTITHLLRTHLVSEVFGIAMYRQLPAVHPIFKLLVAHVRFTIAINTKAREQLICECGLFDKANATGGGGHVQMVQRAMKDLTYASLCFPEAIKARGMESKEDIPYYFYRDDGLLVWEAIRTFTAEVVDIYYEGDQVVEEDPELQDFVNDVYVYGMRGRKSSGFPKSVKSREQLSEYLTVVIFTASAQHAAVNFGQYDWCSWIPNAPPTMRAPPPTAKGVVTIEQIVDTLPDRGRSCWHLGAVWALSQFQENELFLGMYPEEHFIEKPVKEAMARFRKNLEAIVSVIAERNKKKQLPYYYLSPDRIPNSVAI
Test: In vitro 5-hLOX enzyme assay (H2DCFDA fluorescence)
Type: biochemical
Settings: 5-hLOX
Assay metric: Type of inhibition

# Compound, Result
data = [
    ("O=C1CC(c2ccc(O)c(O)c2)Oc2cc(O)cc(O)c21 (stereo not shown) [Compound 3, 5,7,3’,4’-Tetrahydroxyflavanone]", "competitive"),
    ("CC(Cc1ccc(O)c(O)c1)C(C)Cc1ccc(O)c(O)c1 (stereo not shown) [NDGA, nordihydroguaiaretic acid, reference compound]", "competitive"),
    ("COc1cc(O)c2c(c1)O[C@H](c1ccc(O)c(O)c1)CC2=O [Compound 2]", "competitive"),
]

----------
Molecular target: 5-hLOX (Homo sapiens, UniProt P09917)
Construct: purchased Cayman Chemicals Inc. (Ann Arbor, MI, USA)
Experiment: In vitro 5-hLOX enzyme assay (H2DCFDA fluorescence)
Assay type: biochemical
Assay metric: pIC50
// returns pIC50 (minus log10 of molar concentration), number only

*Q* Which pIC50 value is on record for COc1cc(O)c2c(c1)O[C@H](c1ccc(O)cc1)CC2=O [Compound 1] ?
*A* 4.95

----------
Target: 5-hLOX (Homo sapiens)
Construct: purchased Cayman Chemicals Inc. (Ann Arbor, MI, USA)
Experiment: In vitro 5-hLOX enzyme assay (H2DCFDA fluorescence)
Format: biochemical
Assay metric: Ki (µM)
Entry rule: numbers only, all in µM.

*Q* Test system 5-hLOX (Homo sapiens); read-out Ki; what value for COc1cc(O)c2c(c1)O[C@H](c1ccc(O)cc1)CC2=O [Compound 1] ?
*A* 4.71
